# credit: patent US20140213531A1

Let's look at some binders and their measured % inhibition at 100 µM.
molecular target: T1, Coagulation Factor Xa, from uman plasma (human, UniProt P00742 41-179; P00742 235-488, limits assumed); experiment: enzyme inhibition, pNA substrate
T1 construct: purified natural enzyme, bought; also called FXa
T1 sequence (P00742 41-179 limits assumed, chain 1 of 2): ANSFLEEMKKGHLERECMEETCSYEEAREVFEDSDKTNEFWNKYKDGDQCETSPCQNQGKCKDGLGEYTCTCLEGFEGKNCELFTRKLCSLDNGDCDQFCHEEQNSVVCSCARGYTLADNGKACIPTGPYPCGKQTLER
T1 sequence (P00742 235-488 limits assumed, chain 2 of 2): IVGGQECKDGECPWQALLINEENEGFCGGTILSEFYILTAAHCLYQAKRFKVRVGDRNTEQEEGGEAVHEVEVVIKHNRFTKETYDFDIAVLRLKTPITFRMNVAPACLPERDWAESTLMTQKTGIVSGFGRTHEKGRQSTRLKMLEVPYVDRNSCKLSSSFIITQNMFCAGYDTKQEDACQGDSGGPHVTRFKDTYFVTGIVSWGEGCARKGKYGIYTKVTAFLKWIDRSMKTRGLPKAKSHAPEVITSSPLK
Bridges are numbered along the chain shown (N, C = ends). [ ]: non-standard residue; d: D form. Nle = CCCC[C@H](N)C(=O)O
recorded endpoint: % inhibition at 100 µM (%)

binder	measurement unit	observed
cyclo([Nle]CAASIPPQCY[dP]P) (disulfide 2-10, also called Ex. 86) [Example 86]	%	24.8
XCTASIPPQCY (HELM PEPTIDE1{[Nle].C.T.A.S.I.P.P.Q.C.Y.[dP].V}$PEPTIDE1,PEPTIDE1,2:R3-10:R3|PEPTIDE1,PEPTIDE1,1:R1-13:R2$$$V2.0; SMILES CCCC[C@@H]1NC(=O)[C@H](C(C)C)NC(=O)[C@H]2CCCN2C(=O)[C@H](Cc2ccc(O)cc2)NC(=O)[C@@H]2CSSC[C@H](NC1=O)C(=O)N[C@@H]([C@@H](C)O)C(=O)N[C@@H](C)C(=O)N[C@@H](CO)C(=O)N[C@@H]([C@@H](C)CC)C(=O)N1CCC[C@H]1C(=O)N1CCC[C@H]1C(=O)N[C@@H](CCC(N)=O)C(=O)N2) [Example 125]	%	0
XCTASIPPQCX (HELM PEPTIDE1{[Nle].C.T.A.S.I.P.P.Q.C.[Phg].[dP].P}$PEPTIDE1,PEPTIDE1,2:R3-10:R3|PEPTIDE1,PEPTIDE1,1:R1-13:R2$$$V2.0; SMILES CCCC[C@@H]1NC(=O)[C@@H]2CCCN2C(=O)[C@H]2CCCN2C(=O)[C@H](c2ccccc2)NC(=O)[C@@H]2CSSC[C@H](NC1=O)C(=O)N[C@@H]([C@@H](C)O)C(=O)N[C@@H](C)C(=O)N[C@@H](CO)C(=O)N[C@@H]([C@@H](C)CC)C(=O)N1CCC[C@H]1C(=O)N1CCC[C@H]1C(=O)N[C@@H](CCC(N)=O)C(=O)N2, also called Ex. 136) [Example 136]	%	0
XQTASIPPQTY (HELM PEPTIDE1{[CCCCCCCC[C@H](N[*:1])C(=O)[*:2]].Q.T.A.S.I.P.P.Q.T.Y.[dP].P}$PEPTIDE1,PEPTIDE1,1:R1-13:R2$$$V2.0; SMILES CCCCCCCC[C@@H]1NC(=O)[C@@H]2CCCN2C(=O)[C@H]2CCCN2C(=O)[C@H](Cc2ccc(O)cc2)NC(=O)[C@H]([C@@H](C)O)NC(=O)[C@H](CCC(N)=O)NC(=O)[C@@H]2CCCN2C(=O)[C@@H]2CCCN2C(=O)[C@H]([C@@H](C)CC)NC(=O)[C@H](CO)NC(=O)[C@H](C)NC(=O)[C@H]([C@@H](C)O)NC(=O)[C@H](CCC(N)=O)NC1=O) [Example 154]	%	0
